# Test system: MDA-MB-468 breast
# experiment: NCI tumour cell line growth inhibition, 48 h; in the data active means GI50 below about 0.43 µM; inactive means the rest
Outcomes: 1 = active, -1 = inactive

compound: Cc1cc(C(=O)NC(C)(C)C)cc(C#Cc2ccc3c4c(oc3c2)C(C)(C)c2cc(NS(C)(=O)=O)ccc2C4=O)n1
label: -1

compound: Oc1ccccc1N=Cc1c(O)ccc2ccccc12
label: -1

compound: CN1C(=O)N(C)C2C1NN=c1s/c(=C\c3ccccc3F)c(=O)n12 (stereo unspecified)
label: 1

compound: Cc1cc(C)c(C#N)c(SCC(=O)c2sc3c(C#N)c(C)cc(C)[n+]3c2[O-])n1
label: 1

compound: O=C(COc1cccc(/C=C2/Oc3ccccc3C2=O)c1)Nc1nccs1
label: -1

compound: CN1CCN(c2ccc(N3Cc4ccccc4OC4=C3C(=O)c3c(O)ccc(O)c3C4=O)cn2)CC1
label: 1

compound: COc1cc(-c2cc(/C=C/C(=O)c3ccc(N)cc3)[nH]n2)cc(OC)c1OC
label: -1

compound: CC1=C2C(=C[C@@](C)(COCOCCCl)[C@@H]2O)C(=O)[C@](C)(O)C12CC2
label: 1

compound: CS(=O)(=O)Nc1ccc(Nc2c3ccccc3nc3cc(N)ccc23)cc1
label: 1

compound: O=C(Nc1ccc(Cl)cc1)Nc1ccc(Oc2nncc3ccccc23)cc1
label: -1

compound: O=C1/C(=C/c2ccc(O)c(O)c2)COc2ccc(-c3ccccc3)cc21
label: -1

----------
# System: RXF 393 renal
# experiment: NCI tumour cell line growth inhibition, 48 h; in the data active = GI50 below about 0.43 µM; inactive = the rest
Outcomes: Yes for active, No for inactive

molecule: O=c1cc(-c2ccccc2)oc2cc(OCCCC[P+](c3ccccc3)(c3ccccc3)c3ccccc3)cc(O)c12
label: No
//
molecule: Cc1nc(Nc2nc(C)c3ccc(OCCN4CCOCC4)cc3n2)[nH]c(=O)c1C
label: No
//
molecule: Cc1ccccc1[C@H]1C(C(=O)c2ccc(Cl)cc2)C2(N[C@@H]1c1ccccc1)C(=O)Nc1ccccc12 (stereo not given in full)
label: No
//
molecule: CC1=C2C(=C[C@@](C)(COCOCCCl)[C@@H]2O)C(=O)[C@](C)(O)C12CC2
label: Yes
//
molecule: C=C1CC[C@@H]2[C@]3(C)COC(c4cn[nH]c4-c4ccc(C)cc4)O[C@@H]3CC[C@@]2(C)[C@@H]1C/C=C1/C(=O)OCC1O (stereo not given in full)
label: No

The reported measurements were obtained from PubChem BioAssay (NCI).
